IC50 listing for selected compounds.
- targetOfAssay: Organic anion transporter 3 (Homo sapiens, UniProt Q8TCC7)
- Sequence (Q8TCC7 whole entry): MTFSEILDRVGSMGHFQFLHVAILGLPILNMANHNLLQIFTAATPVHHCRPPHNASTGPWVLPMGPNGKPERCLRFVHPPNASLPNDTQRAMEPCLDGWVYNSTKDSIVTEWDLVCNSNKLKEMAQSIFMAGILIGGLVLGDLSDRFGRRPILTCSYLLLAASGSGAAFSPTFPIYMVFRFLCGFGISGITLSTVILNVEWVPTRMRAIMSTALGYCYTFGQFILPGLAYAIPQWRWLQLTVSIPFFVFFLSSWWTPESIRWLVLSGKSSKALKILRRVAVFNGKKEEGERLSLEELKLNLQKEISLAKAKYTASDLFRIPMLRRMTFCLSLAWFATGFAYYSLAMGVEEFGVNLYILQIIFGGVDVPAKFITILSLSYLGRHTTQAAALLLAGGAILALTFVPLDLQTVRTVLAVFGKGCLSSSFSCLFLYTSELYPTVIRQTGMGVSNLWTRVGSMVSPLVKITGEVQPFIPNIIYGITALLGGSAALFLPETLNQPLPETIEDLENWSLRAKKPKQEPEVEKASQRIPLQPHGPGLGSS
- experimentDescription: TP_TRANSPORTER: inhibition of ES uptake (ES: 50nM) in hOAT3-expressing S2 cells
Reply numerically in µM, unit not repeated.

>>> resultvalue("CC1(C)C[C@@H]1C(=O)N/C(=C\\CCCCSC[C@H](N)C(=O)O)C(=O)O [CILASTATIN]")
249
>>> resultvalue("CN/C(=N/CCSCc1nc[nH]c1C)NC#N [CIMETIDINE]")
92.4
>>> resultvalue("O=C(O)CCNC(=O)c1ccccc1 [BETAMIPRON]")
9.92

// next item, IC50 requested
Write down IC50 measured for item CC[C@H](C)C(=O)O[C@H]1C[C@H](O)C=C2C=C[C@H](C)[C@H](CC[C@@H](O)C[C@@H](O)CC(=O)O)[C@H]21 [PRAVASTATIN]
13.7
